The measured values listed here are drawn from patent US11912693B2.

Catalogue of molecules with associated Emax
Biological target: human sphingosine-1-phosphate receptor 1 (S1P1) (Homo sapiens (Human), UniProt P21453)
Test: Inhibition of cAMP production (HTRF cAMP HiRange), S1P1 CHO-K1 cells
Assay type: cell-based
Details: CHO-K1; efficacy (SPAN) normalized to fingolimod; read-out: hS1P1 cAMP SPAN
Sequence (P21453 whole entry, looked up): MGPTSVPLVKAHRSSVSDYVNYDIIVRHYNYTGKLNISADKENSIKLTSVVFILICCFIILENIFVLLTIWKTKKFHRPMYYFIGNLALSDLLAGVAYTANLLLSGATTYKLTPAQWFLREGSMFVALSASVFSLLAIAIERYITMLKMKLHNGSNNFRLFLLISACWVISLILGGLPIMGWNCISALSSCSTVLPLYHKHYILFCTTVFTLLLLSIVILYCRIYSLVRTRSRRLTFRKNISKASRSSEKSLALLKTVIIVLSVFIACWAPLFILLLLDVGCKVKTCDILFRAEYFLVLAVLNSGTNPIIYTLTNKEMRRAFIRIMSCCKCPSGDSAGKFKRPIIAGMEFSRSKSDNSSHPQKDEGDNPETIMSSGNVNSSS

>  <Cpd Smiles>
CC(C)n1nnc2cc(-c3noc(-c4ccc(C5CCCCC5)cc4)n3)ccc21

>  <Emax>
< 75%

$$$$
>  <Cpd Smiles>
CC(C)n1nnc2cc(-c3nc4c(Br)cccc4o3)ccc21

>  <Emax>
> 75%

$$$$
>  <Cpd Smiles>
CCC1(CC)CC(=O)c2cc(-c3nc(-c4ccc(C)cc4)no3)ccc2O1

>  <Emax>
< 75%

$$$$
>  <Cpd Smiles>
CCc1ncc(-c2noc(-c3ccc4c(c3)nnn4C(C)C)n2)cn1

>  <Emax>
< 75%

$$$$
>  <Cpd Smiles>
Brc1ccccc1-c1nc(-c2ccc3c(c2)nnn3Cc2cccnc2)no1

>  <Emax>
< 75%

$$$$
>  <Cpd Smiles>
CC(C)Oc1ccccc1-c1noc(-c2ccc3c(ccn3C(C)C)c2)n1

>  <Emax>
< 75%

$$$$
>  <Cpd Smiles>
N#Cc1cc(-c2nc(-c3ccc4sc(N)nc4c3)no2)ccc1NCC1CC1

>  <Emax>
> 75%

$$$$
>  <Cpd Smiles>
Cc1ccncc1-c1noc(-c2ccc3nnn(C(C)C)c3c2)n1

>  <Emax>
< 75%

$$$$
>  <Cpd Smiles>
CC(C)n1nnc2cc(-c3nc(-c4cn[nH]c4)no3)ccc21

>  <Emax>
< 75%

$$$$
>  <Cpd Smiles>
CC(C)n1ncc2cc(-c3nc(-c4ccccc4O)no3)ccc21

>  <Emax>
> 75%

$$$$
>  <Cpd Smiles>
COc1cnccc1-c1nc(-c2ccc3c(c2)nnn3C(C)C)no1

>  <Emax>
> 75%

$$$$
>  <Cpd Smiles>
CCC1(CC)CC(=O)c2cc(-c3nc(-c4cnccc4OC)no3)ccc2O1

>  <Emax>
> 75%

$$$$
>  <Cpd Smiles>
Brc1ccccc1-c1noc(-c2ccc3[nH]nnc3c2)n1

>  <Emax>
< 75%

$$$$
>  <Cpd Smiles>
COc1ccc(-c2noc(-c3ccc4c(c3)nnn4C3CCCC3)n2)cc1C(F)(F)F

>  <Emax>
< 75%

$$$$
>  <Cpd Smiles>
COCCn1cc(-c2ccccc2C)cc1-c1ccc2c(c1)nnn2C(C)C

>  <Emax>
< 75%

$$$$
>  <Cpd Smiles>
CC(C)n1nnc2cc(-c3nc(-c4ccc5ccccc5n4)no3)ccc21

>  <Emax>
< 75%

$$$$
>  <Cpd Smiles>
COc1ccccc1-c1noc(-c2ccc3c(c2)nnn3C(C)C)n1

>  <Emax>
> 75%

$$$$
>  <Cpd Smiles>
Cc1ccsc1-c1nc(-c2ccc3c(c2)nnn3C(C)(C)CO)no1

>  <Emax>
< 75%

$$$$
>  <Cpd Smiles>
CC(C)n1nnc2cc(-c3noc(-c4ccc(F)cc4)n3)ccc21

>  <Emax>
< 75%

$$$$
>  <Cpd Smiles>
CC1(C)CC(=O)c2cc(-c3nc(-c4cccnc4)no3)ccc2O1

>  <Emax>
> 75%

$$$$
>  <Cpd Smiles>
CCC1(CC)CC(=O)c2cc(-c3nc(-c4ccnc(F)c4)no3)ccc2O1

>  <Emax>
> 75%

$$$$
>  <Cpd Smiles>
CC(C)n1nnc2cc(-c3noc(-c4ccccc4N)n3)ccc21

>  <Emax>
> 75%

$$$$
>  <Cpd Smiles>
Brc1ccccc1-c1noc(-c2ccc3c(c2)nnn3C2CC2)n1

>  <Emax>
> 75%

$$$$
>  <Cpd Smiles>
CCCCC1(CCCC)CC(=O)c2cc(-c3nc(-c4cccnc4)no3)ccc2O1

>  <Emax>
< 75%

$$$$
>  <Cpd Smiles>
COc1ccccc1-c1nc(-c2ccc3c(c2)nnn3C2CCCC2)no1

>  <Emax>
> 75%

$$$$
>  <Cpd Smiles>
CC(C)n1ccc2cc(-c3nc(-c4ccccc4C(F)(F)F)cs3)ccc21

>  <Emax>
> 75%

$$$$
>  <Cpd Smiles>
COc1ccncc1-c1nc(-c2ccc3c(c2)nnn3C(C)C)no1

>  <Emax>
> 75%

$$$$
>  <Cpd Smiles>
Cn1nnc2cc(-c3noc(-c4ccccc4Br)n3)ccc21

>  <Emax>
< 75%

$$$$
>  <Cpd Smiles>
Cc1ccccc1-c1noc(-c2ccc3c(c2)nnn3CC2CC2)n1

>  <Emax>
< 75%

$$$$

---

Target: human sphingosine-1-phosphate receptor 1 (S1P1) (Homo sapiens (Human))
Experiment: Inhibition of cAMP production (HTRF cAMP HiRange), S1P1 CHO-K1 cells
Assay type: cell-based
Conditions: inhibition of cAMP production, S1P1 CHO-K1 cells
Metric: hS1P1 cAMP pEC50

>  <Cpd Smiles>
Cn1nnc2cc(-c3noc(-c4ccccc4Br)n3)ccc21

>  <Metric>
hS1P1 cAMP pEC50

>  <Value Measured>
<6.5

$$$$
>  <Cpd Smiles>
COc1ccccc1-c1nnc(-c2ccc3[nH]c(=O)oc3c2)o1

>  <Metric>
hS1P1 cAMP pEC50

>  <Value Measured>
>6.5

$$$$
>  <Cpd Smiles>
CC(C)n1nnc2cc(-c3nc(-c4ccc5nncn5c4)no3)ccc21

>  <Metric>
hS1P1 cAMP pEC50

>  <Value Measured>
<6.5

$$$$
>  <Cpd Smiles>
CCC1(CC)CC(=O)c2cc(-c3nc(-c4cnccc4OC)no3)ccc2O1

>  <Metric>
hS1P1 cAMP pEC50

>  <Value Measured>
<6.5

$$$$
>  <Cpd Smiles>
CC(C)Cn1nnc2cc(-c3nc(-c4ccccc4Cl)no3)ccc21

>  <Metric>
hS1P1 cAMP pEC50

>  <Value Measured>
<6.5

$$$$
>  <Cpd Smiles>
O=C1CC2(CCOCC2)Oc2ccc(-c3nc(-c4cccnc4)no3)cc21

>  <Metric>
hS1P1 cAMP pEC50

>  <Value Measured>
<6.5

$$$$
>  <Cpd Smiles>
CC(C)Oc1ccc(-c2nc(-c3ccc4c(c3)nnn4C3CCCC3)no2)cc1

>  <Metric>
hS1P1 cAMP pEC50

>  <Value Measured>
<6.5

$$$$
>  <Cpd Smiles>
COC(=O)CCn1nnc2cc(-c3noc(-c4ccccc4Br)n3)ccc21

>  <Metric>
hS1P1 cAMP pEC50

>  <Value Measured>
<6.5

$$$$
>  <Cpd Smiles>
Cc1ccccc1-c1nc(-c2ccc3c(c2)nnn3C(C)C)no1

>  <Metric>
hS1P1 cAMP pEC50

>  <Value Measured>
>6.5

$$$$
>  <Cpd Smiles>
CCC1(CC)CC(=O)c2cc(-c3nc(-c4cccnc4C)no3)ccc2O1

>  <Metric>
hS1P1 cAMP pEC50

>  <Value Measured>
>6.5

$$$$
>  <Cpd Smiles>
COc1cccnc1-c1nc(-c2ccc3c(c2)nnn3C(C)C)no1

>  <Metric>
hS1P1 cAMP pEC50

>  <Value Measured>
>6.5

$$$$
>  <Cpd Smiles>
COc1ccccc1-c1nnc(-c2ccc3c(c2)nnn3C(C)C)s1

>  <Metric>
hS1P1 cAMP pEC50

>  <Value Measured>
<6.5

$$$$
>  <Cpd Smiles>
CC(C)n1ncc2cc(-c3nc(-c4ccccc4O)no3)ccc21

>  <Metric>
hS1P1 cAMP pEC50

>  <Value Measured>
>6.5

$$$$

---

Attribute: Emax
Target: human sphingosine-1-phosphate receptor 1 (S1P1) (Homo sapiens (Human))
Assay: β-Arrestin2 recruitment assay (PathHunter), S1P1 CHO-K1 cells
Assay type: cell-based
Settings: CHO-K1; efficacy (SPAN) normalized to fingolimod; read-out: hS1P1 B-arrestin2 SPAN
Sequence (P21453 whole entry, looked up): as above
Sequence (P32121 whole entry partner, looked up): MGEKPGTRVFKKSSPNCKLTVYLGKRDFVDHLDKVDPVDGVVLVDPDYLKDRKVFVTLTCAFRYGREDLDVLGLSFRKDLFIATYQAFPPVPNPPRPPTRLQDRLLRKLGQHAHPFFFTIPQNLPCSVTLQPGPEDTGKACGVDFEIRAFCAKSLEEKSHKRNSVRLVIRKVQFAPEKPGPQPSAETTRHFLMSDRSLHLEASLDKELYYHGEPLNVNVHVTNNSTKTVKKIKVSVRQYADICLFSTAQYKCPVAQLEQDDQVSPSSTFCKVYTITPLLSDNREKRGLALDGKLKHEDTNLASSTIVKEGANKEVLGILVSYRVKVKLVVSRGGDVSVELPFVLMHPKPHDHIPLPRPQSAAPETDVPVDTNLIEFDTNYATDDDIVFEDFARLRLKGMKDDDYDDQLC

>  <Molecule>
N#Cc1cc(-c2nc(-c3ccc4sc(N)nc4c3)no2)ccc1NCC1CC1 [Compound 440]

>  <Emax>
> 75%

$$$$
>  <Molecule>
Fc1ccc(-c2noc(-c3ccc4c(c3)nnn4C3CCCC3)n2)cc1 [Compound 232]

>  <Emax>
< 75%

$$$$
>  <Molecule>
CCC1(CC)CC(=O)c2cc(-c3nsc(-c4ccc5c(c4)nnn5C(C)C)n3)ccc2O1 [Compound 143]

>  <Emax>
< 75%

$$$$
>  <Molecule>
CCC1(CC)CC(=O)c2cc(-c3nc(-c4ccccn4)no3)ccc2O1 [Compound 111]

>  <Emax>
> 75%

$$$$
>  <Molecule>
CCC1(CC)CC(=O)c2cc(-c3nc(-c4ccc(C)cc4)no3)ccc2O1 [Compound 269]

>  <Emax>
< 75%

$$$$

---

Biological target: human sphingosine-1-phosphate receptor 1 (S1P1) (Homo sapiens (Human))
Assay: β-Arrestin2 recruitment assay (PathHunter), S1P1 CHO-K1 cells
Format: cell-based
Conditions: β-arrestin2 recruitment, S1P1 CHO-K1 cells

>  <Cpd Smiles>
CC(C)Oc1ccccc1-c1noc(-c2ccc3c(ccn3C(C)C)c2)n1

>  <hS1P1 B-arrestin2 pEC50>
<5

$$$$
>  <Cpd Smiles>
COc1cccnc1-c1noc(-c2ccc3c(c2)nnn3C2CCCC2)n1

>  <hS1P1 B-arrestin2 pEC50>
<5

$$$$
>  <Cpd Smiles>
Brc1ccccc1-c1noc(-c2ccc3[nH]nnc3c2)n1

>  <hS1P1 B-arrestin2 pEC50>
<5

$$$$
>  <Cpd Smiles>
C=CCNc1ccc(-c2nc(-c3ccc4[nH]ccc4c3)no2)cc1C#N

>  <hS1P1 B-arrestin2 pEC50>
>5

$$$$
